Origin of values: the supplement of paper PMC10126150

- Tested on: ATP;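 further: ATP exposure 15 min at 22 °C before imaging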
- methodSummary: switch fluorescence ratio, 500 uM ATP over buffer (Cy3 cluster intensity, sum of 5 cycles each) (fold (ratio)); higher = stronger signal-on switching upon ATP binding; sequences stand for … in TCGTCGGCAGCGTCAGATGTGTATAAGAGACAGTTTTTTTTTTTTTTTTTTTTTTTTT…TC
- recordedConditions: aptamer strand: ATP DNA aptamer (quencher-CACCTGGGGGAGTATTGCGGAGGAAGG + anchor), 100 nM annealed; ATP concentration: 500 uM
propertyName: switch fluorescence ratio
Answers are plain numbers.

Example entries and their recorded answers appear below.
{"recordSequence": "TTGTGGTCTT", "propertyName": "switch fluorescence ratio", "measurement": 0.976}
{"recordSequence": "ATTTATGTGG", "propertyName": "switch fluorescence ratio", "measurement": 0.998}
{"recordSequence": "GAGGAAGTAT", "propertyName": "switch fluorescence ratio", "measurement": 0.978}
{"recordSequence": "TACCGTGTCC", "propertyName": "switch fluorescence ratio", "measurement": 1.11}
{"recordSequence": "AGGCGGGCGG", "propertyName": "switch fluorescence ratio", "measurement": 0.959}
{"recordSequence": "AGTTAAAGGT", "propertyName": "switch fluorescence ratio", "measurement": 0.992}

Okay, here is my list. What is switch fluorescence ratio for each of these?
1. ATTTCATGG
2. TGATGGCTGC
3. GGGTTTTGGT

## Result
1: 0.97; 2: 1.04; 3: 0.978

---

Please respond with reported switch fluorescence ratio for every item in the list.
- System: ATP;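 further: ATP exposure 15 min at 22 °C before imaging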
- methodSummary: switch fluorescence ratio, 500 uM ATP over buffer (Cy3 cluster intensity, sum of 5 cycles each) (fold (ratio)); higher = stronger signal-on switching upon ATP binding; sequences stand for … in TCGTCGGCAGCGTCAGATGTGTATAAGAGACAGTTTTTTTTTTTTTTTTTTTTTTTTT…TC
- recordedConditions: aptamer strand: ATP DNA aptamer (quencher-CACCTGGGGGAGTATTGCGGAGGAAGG + anchor), 100 nM annealed; ATP concentration: 500 uM
Answers are plain numbers.

{"recordSequence": "TCGGGAACGA", "switch fluorescence ratio": 0.999}
{"recordSequence": "CTGTTTCGAC", "switch fluorescence ratio": 1.02}
{"recordSequence": "AAATTGTAAT", "switch fluorescence ratio": 1.02}

With those in mind, consider the next sequence.
## Task Please provide the recorded switch fluorescence ratio for TGGCACCTTT , tested on ATP.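 Further: ATP exposure 15 min at 22 °C before imaging.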
## Result 1.11

---

- Tested on: ATP;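 further: ATP exposure 15 min at 22 °C before imaging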
- methodSummary: switch fluorescence ratio, 500 uM ATP over buffer (Cy3 cluster intensity, sum of 5 cycles each) (fold (ratio)); higher = stronger signal-on switching upon ATP binding; sequences stand for … in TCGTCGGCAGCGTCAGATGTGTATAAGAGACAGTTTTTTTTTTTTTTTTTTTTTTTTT…TC
- recordedConditions: aptamer strand: ATP DNA aptamer (quencher-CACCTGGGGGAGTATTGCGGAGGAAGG + anchor), 100 nM annealed; ATP concentration: 500 uM
propertyName: switch fluorescence ratio
One number for each entry.

Example entries and their recorded answers appear below.
{"recordSequence": "AGGGGGAGAT", "targetOrTestSystem": "ATP", "switch fluorescence ratio": 1.02}
{"recordSequence": "TAAGGCGAGT", "targetOrTestSystem": "ATP", "switch fluorescence ratio": 1.03}
{"recordSequence": "GGAGAACCCT", "targetOrTestSystem": "ATP", "switch fluorescence ratio": 1.07}
{"recordSequence": "TCTCGGGCTT", "targetOrTestSystem": "ATP", "switch fluorescence ratio": 0.987}
{"recordSequence": "TGTATGGTAG", "targetOrTestSystem": "ATP", "switch fluorescence ratio": 0.975}
{"recordSequence": "ATCGGGGGGG", "targetOrTestSystem": "ATP", "switch fluorescence ratio": 1}

Okay, here is my list. What is switch fluorescence ratio for each of these?
1. CTGTCGGGTT
2. TATTTTCTGT
3. GCGTCGAACA

## Result
1: 1.03; 2: 0.997; 3: 0.999

---

- System: ATP;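 further: ATP exposure 15 min at 22 °C before imaging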
- methodSummary: switch fluorescence ratio, 500 uM ATP over buffer (Cy3 cluster intensity, sum of 5 cycles each) (fold (ratio)); higher = stronger signal-on switching upon ATP binding; sequences stand for … in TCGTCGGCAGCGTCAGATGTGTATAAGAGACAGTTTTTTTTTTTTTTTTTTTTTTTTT…TC
- recordedConditions: aptamer strand: ATP DNA aptamer (quencher-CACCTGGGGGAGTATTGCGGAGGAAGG + anchor), 100 nM annealed; ATP concentration: 500 uM
Is switch fluorescence ratio at least 1? Then Yes. If not, No.

{"recordSequence": "GATGTACCTC", "label": "Yes"}
{"recordSequence": "TGTTAATAAG", "label": "No"}
{"recordSequence": "AATCTGGACG", "label": "Yes"}
{"recordSequence": "CATCAGGAGG", "label": "No"}
{"recordSequence": "TTCAGTATGG", "label": "No"}

## Task Item GGGCCAGTGA with switch fluorescence ratio of 1 or above?
## Result Yes

## Task Item TTAAAAGTTG with switch fluorescence ratio of 1 or above?
## Result Yes

## Task Item TCGTTATTTT with switch fluorescence ratio of 1 or above?
## Result Yes

## Task Item ACTGATGGAC with switch fluorescence ratio of 1 or above?
## Result Yes

## Task Item AGCAGGTGGC with switch fluorescence ratio of 1 or above?
## Result Yes

## Task Item CTAGGACTTG with switch fluorescence ratio of 1 or above?
## Result No

## Task Item ATGCAAGGTC with switch fluorescence ratio of 1 or above?
## Result Yes

## Task Item ACTTAAAATG with switch fluorescence ratio of 1 or above?
## Result Yes

## Task Item ACTAATAAGG with switch fluorescence ratio of 1 or above?
## Result Yes

## Task Item AGTGCGGGGG with switch fluorescence ratio of 1 or above?
## Result Yes

## Task Item ACATACGAAC with switch fluorescence ratio of 1 or above?
## Result Yes

## Task Item ATAAAGTCAC with switch fluorescence ratio of 1 or above?
## Result Yes

## Task Item CGACAGGCAT with switch fluorescence ratio of 1 or above?
## Result Yes

## Task Item TTGAATAGTG with switch fluorescence ratio of 1 or above?
## Result No

## Task Item TCGGTCCAGG with switch fluorescence ratio of 1 or above?
## Result Yes

## Task Item GCGGCCTTTC with switch fluorescence ratio of 1 or above?
## Result Yes

---

- Test system: ATP;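 further: ATP exposure 15 min at 22 °C before imaging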
- methodSummary: switch fluorescence ratio, 500 uM ATP over buffer (Cy3 cluster intensity, sum of 5 cycles each) (fold (ratio)); higher = stronger signal-on switching upon ATP binding; sequences stand for … in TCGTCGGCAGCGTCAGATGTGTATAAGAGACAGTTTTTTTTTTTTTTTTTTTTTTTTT…TC
- recordedConditions: aptamer strand: ATP DNA aptamer (quencher-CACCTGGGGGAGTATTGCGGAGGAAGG + anchor), 100 nM annealed; ATP concentration: 500 uM
Please respond with reported switch fluorescence ratio for every item in the list.
One number for each entry.

{"recordSequence": "CTTCGGACCG", "switch fluorescence ratio": 1.03}

Okay, here is my list. What is switch fluorescence ratio for each of these?
1. AAGTGTTGTC
2. TACAGGTTTC
3. TGGTGGGGCG

## Result
1: 1.1; 2: 1; 3: 1.11

---

Please respond with reported switch fluorescence ratio for every item in the list.
- System: ATP;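 further: ATP exposure 15 min at 22 °C before imaging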
- methodSummary: switch fluorescence ratio, 500 uM ATP over buffer (Cy3 cluster intensity, sum of 5 cycles each) (fold (ratio)); higher = stronger signal-on switching upon ATP binding; sequences stand for … in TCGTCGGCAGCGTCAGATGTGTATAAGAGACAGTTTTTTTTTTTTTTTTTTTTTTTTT…TC
- recordedConditions: aptamer strand: ATP DNA aptamer (quencher-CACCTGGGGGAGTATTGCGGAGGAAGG + anchor), 100 nM annealed; ATP concentration: 500 uM
One number for each entry.

Example entries and their recorded answers appear below.
{"recordSequence": "AGGGCTGCGT", "switch fluorescence ratio": 0.984}
{"recordSequence": "TGGTGTGAAT", "switch fluorescence ratio": 1.01}
{"recordSequence": "CGGGGGAACG", "switch fluorescence ratio": 1.01}
{"recordSequence": "GGGGGGACTT", "switch fluorescence ratio": 0.983}
{"recordSequence": "AGGAATTTAG", "switch fluorescence ratio": 1.02}
{"recordSequence": "CATTGGGTG", "switch fluorescence ratio": 1.05}

Okay, here is my list. What is switch fluorescence ratio for each of these?
1. CGGTTGAGTA
2. ATGAGCCACT

## Result
[0.998, 0.994]

Okay, here is my list. What is switch fluorescence ratio for each of these?
1. GAGCACGTTT
2. TATCTATGGG

## Result
1. 0.996
2. 0.983

Okay, here is my list. What is switch fluorescence ratio for each of these?
1. ACCCGTTGTG
2. TTAGTATGTT

## Result
1.05
1
